- System: UO-31 renal
- TEST_DESCRIPTION: NCI tumour cell line growth inhibition, 48 h
Below, each entry is listed alongside its reported TGI.
READOUT_KIND: TGI (µM)

1. CCOC(=O)c1c(C)noc1/N=N/N(CCO)CCO :: 77.2
2. CC(NC1=NCCO1)c1cccs1 (stereo not given) :: 92.8
3. Fc1c[c-]c(-c2ccccn2)c(F)c1.[CH3-].[Pt+2].c1ccc([PH+](c2ccccc2)c2ccccn2)cc1 :: 2.28
4. COc1ccc2c(c1)C(=O)c1c-2c(OCCN(C)C)nc2cc(OC)ccc12 :: 2.66
5. Cc1cc(O)c(C2=NN(c3ccc(S(N)(=O)=O)cc3)C(c3ccccc3O)C2)cc1Cl (stereo not given) :: 5.65
6. CCc1cccc(CC)c1Nc1nc2c(s1)C(=O)c1ccccc1C2=O :: 29.2
7. CC(C)C(C/C=C1/CC(CO)(COC(=O)C(C)(C)C)OC1=O)C(C)C (stereo not given) :: 17.3

###

Below, each entry is listed alongside its reported TGI.
- Test system: SNB-19 CNS
- TEST_DESCRIPTION: NCI tumour cell line growth inhibition, 48 h
READOUT_KIND: TGI (µM)

1. Cc1c2cnccc2c(C)c2c1c1cc(C(=O)O)ccc1n2C :: 10.3
2. C=C(CN(C)C)C(=O)c1ccc(C)cc1C :: 57.7
3. CN(C)/N=C1\C=C2CC[C@H](O[Si](C)(C)C(C)(C)C)[C@@]2(C)CC1 :: 31.9
4. O=C(Nc1ccc(Cl)cc1F)c1cc(F)ccc1O :: 18.6
5. COc1ccc2c(c1)C(=O)c1c-2c(OCCN(C)C)nc2cc(OC)ccc12 :: 6.24

###

- System: ACHN renal
- TEST_DESCRIPTION: NCI tumour cell line growth inhibition, 48 h; in the data active = GI50 below about 0.43 µM; inactive = the rest
Labels: YES for active, NO for inactive

1) COc1cc(OC)cc(-c2ccc(-c3ccc(C(=N)N)s3)s2)c1 :: NO
2) CCN1/C(=C/C=C/C=C/c2sc3ccccc3[n+]2CC)Sc2ccccc21 :: NO
3) OC(COc1cccc2ccccc12)CN1CCN(c2ccc(Cl)cc2)CC1 (configuration not stated) :: NO
4) COc1cccc2c1C(=O)c1c(O)c3c(c(O)c1C2=O)C[C@@](O)(C(=O)CO)C[C@@H]3OC1CC(OC(C)=O)C(OC(C)=O)C(C)O1 (some centres not stated) :: YES
5) O=S(=O)(CC#CCCCOCC#Cc1ccccc1C#CCS(=O)(=O)c1ccccc1)c1ccccc1 :: NO
6) COc1ccc2c(c1)C(=O)c1c-2c(OCCN(C)C)nc2cc(OC)ccc12 :: NO
7) COc1cc(-c2cc(-c3nc4cc(Cl)c(Cl)cc4[nH]3)[nH]n2)cc(OC)c1OC :: NO

###

- Test system: NCI/ADR-RES ovarian
- TEST_DESCRIPTION: NCI tumour cell line growth inhibition, 48 h
Below, each entry is listed alongside its reported TGI.
READOUT_KIND: TGI (µM)

1) Cc1cc(S(N)(=O)=O)c(S/C(=N\Nc2ccc([N+](=O)[O-])cc2)c2ccc(O)cc2)cc1Cl :: 8.57
2) CCOC(=O)/C(=C/c1ccccc1)C(=O)c1ccccc1 :: 70

###

- Test system: NCI-H522 lung
- TEST_DESCRIPTION: NCI tumour cell line growth inhibition, 48 h; in the data active = GI50 below about 0.43 µM; inactive = the rest
Labels: 1 = active, -1 = inactive

1) CCCCCCCCCCCCOC1C(CNCC2OC3OC(C)(C)OC3C2NC(=O)Nc2ccc(C(F)(F)F)cc2)OC2OC(C)(C)OC21 (configuration not stated) :: -1
2) COc1ccc(-c2nn(-c3ccc(NC(=O)Nc4ccc(Cl)c(Cl)c4)cc3)cc2-c2ccncc2)cc1Cl :: -1
3) Cc1cc(C(=O)N[C@@H](CCC(=O)O)C(=O)O)sc1CC[C@@H]1CNc2nc(N)[nH]c(=O)c2C1 :: 1
4) C[C@@H]1[C@H]2[C@H](C=C3[C@@H]4CC[C@H]5Cc6nc7c(nc6C[C@]5(C)[C@H]4C[C@@H](O)[C@@]32C)C[C@@H]2CC[C@H]3C4=C[C@@H]5O[C@@]6(CC[C@](C)(CO)O6)[C@@H](C)[C@@]5(O)[C@@]4(C)[C@H](O)C[C@@H]3[C@@]2(C)C7)O[C@]12CCC(C)(C)O2 :: -1
5) Cc1c2cnccc2c(C)c2c1c1cc(C(=O)O)ccc1n2C :: -1
6) CSC1=Nc2c(c(C)c(-c3ccccc3)n2CCCCl)C2=NC(=O)CN12 :: -1
7) CCOC(=O)/C(=C/c1ccccc1)C(=O)c1ccccc1 :: -1
8) COc1cc(/C=C/C(=O)NC[C@]2(O)CCC3C4CCc5cc(O)ccc5C4CCC32C)ccc1O (some centres not stated) :: -1
9) COc1ccc2c(c1)C(=O)c1c-2c(OCCN(C)C)nc2cc(OC)ccc12 :: -1
10) Cc1cc(Nc2cc(CN3CCOCC3)c3nc(C)c(Cc4ccc(Cl)cc4F)n3n2)n[nH]1 :: -1
11) C=CCC(N[C@@H](CO)c1ccccc1)c1ccccn1 (some centres not stated) :: -1
12) COc1cc(-c2nc3ccccc3[nH]2)ccc1OCC(=O)N=Nc1c(O)[nH]c2ccc(Cl)cc12 :: -1
13) Fc1c[c-]c(-c2ccccn2)c(F)c1.[CH3-].[Pt+2].c1ccc([PH+](c2ccccc2)c2ccccn2)cc1 :: -1
14) COc1ccc(N2CCN(CN3CCN(c4ccc(OC)cc4)C3)C2)cc1 :: -1
15) COc1ccc2[nH]c(-c3ccccc3)c(C=C(C#N)C#N)c2c1 :: -1
16) C=CC(=O)NCCOc1cccc(Nc2cc(NCCCNC(=O)C3CCC3)c(Br)cn2)c1 :: -1
17) CCc1nc(-n2c(CC)nc3ccccc3c2=O)nc(N)c1-c1ccc(Cl)cc1 :: -1

###

Below, each entry is listed alongside its reported TGI.
- Test system: SNB-19 CNS
- TEST_DESCRIPTION: NCI tumour cell line growth inhibition, 48 h
READOUT_KIND: TGI

1) N#C/C(=C\c1ccc(F)cc1)c1nc2ccccc2c(=O)[nH]1 :: > 100 µM
2) O=C1CCc2nc3ncccc3cc2C1 :: > 100 µM
3) COC(=O)CCCC(=O)NC1=C(Nc2ccccc2)C(=O)c2ccccc2C1=O :: 34.6 µM
4) C[C@@H]1[C@H]2[C@H](C=C3[C@@H]4CC[C@H]5Cc6nc7c(nc6C[C@]5(C)[C@H]4C[C@@H](O)[C@@]32C)C[C@@H]2CC[C@H]3C4=C[C@@H]5O[C@@]6(CC[C@](C)(CO)O6)[C@@H](C)[C@@]5(O)[C@@]4(C)[C@H](O)C[C@@H]3[C@@]2(C)C7)O[C@]12CCC(C)(C)O2 :: 7.28 µM
5) COC(=O)/C(=N\N)C(C(=O)C(=O)Nc1cccc([N+](=O)[O-])c1)c1nc2ccc(C(=O)c3ccccc3)cc2[nH]c1=O (stereo not given) :: > 100 µM
6) COc1cccc(CCn2c(N)c(C(=O)O)c3ccc([N+](=O)[O-])cc3c2=O)c1 :: > 100 µM
7) O=C(CCc1ccco1)NC1CCN(CC2(c3ccc(Cl)cc3)CCC2)CC1 :: 30.7 µM
8) Cc1ccc(/C=N/Nc2cc(C)c3ccccc3n2)s1 :: > 100 µM
9) O=C(C[C@@]1(O)C(=O)Nc2c(Cl)ccc(Cl)c21)c1ccc(C2CC2)cc1 :: 18.1 µM
10) Cc1cc(S(=O)(=O)Nc2nc3ccccc3[nH]2)c(S)cc1Cl :: > 100 µM
11) Cc1nc2nn(Cc3ccccc3)cc2c(=O)o1 :: > 100 µM
12) Nc1cc(S(=O)(=O)O)cc2cc(S(=O)(=O)O)c(N=Nc3ccc(-c4ccc(N=Nc5c(S(=O)(=O)O)cc6cc(S(=O)(=O)O)cc(N)c6c5O)cc4)cc3)c(O)c12 :: > 100 µM
13) O=C1c2ccccc2C(=O)c2c(NC(=O)C(Cl)CCl)cccc21 (stereo not given) :: 32.9 µM
14) COc1cc(OC)cc(-n2c(N)c(-c3nc4ccccc4s3)c3ccc([N+](=O)[O-])cc3c2=O)c1 :: > 100 µM
15) Nc1nc(N)c2ncn(-c3ccc(Cl)c(Cl)c3)c2n1 :: > 100 µM
16) O=S(Nc1ccccc1)c1ccc(-c2ccccc2)cc1 (stereo not given) :: > 100 µM
17) COC(=O)/C=C\[C@@H]1[C@H](C)N1S(=O)(=O)c1ccc(C)cc1 (stereo not given in full) :: > 100 µM
18) N#Cc1c(N)c2c(c(-c3ccccc3)c1-c1ccccc1)C(=O)N(Nc1ccccc1)C2=O :: > 100 µM
19) CCOC(=O)/C(=C\c1ccnc2ccccc12)P(=O)(OCC)OCC :: 15.3 µM
20) CCN(CC)CCOc1ccc(N2Cc3ccccc3C2=O)cc1 :: > 10 µM

Value source: PubChem BioAssay (NCI)
